# Tested on: G(−) bacterial strains
# METHOD_SUMMARY: Dilution antimicrobial susceptibility tests (MIC, NCCLS agar dilution / broth dilution)
# Type: cell-based, Gram-negative organisms
# PARTICULARS: strain #34 Pseudomonas aeruginosa, Gen-R; unit assumed
Each item that follows carries a reported MIC.
# include the unit after the value

COMPOUND	MIC
C[C@@H](O)C1C(=O)N2C(C(=O)O)=C(CN3CC[C@H](C(=O)N(C)C)C3)[C@H](C)C12 (stereo partly shown)	16 µg/mL
C[C@@H](O)C1C(=O)N2C(C(=O)O)=C(CN3CC[C@H](C(=O)NS(N)(=O)=O)C3)[C@H](C)C12 (stereo partly shown)	4 µg/mL
C[C@@H](O)C1C(=O)N2C(C(=O)O)=C(CN3CC[C@H](N(C)C)C3)[C@H](C)C12 (stereo partly shown)	4 µg/mL
CC(=O)N[C@H]1CCN(CC2=C(C(=O)O)N3C(=O)C([C@@H](C)O)C3[C@H]2C)C1 (stereo partly shown)	16 µg/mL
C[C@@H](O)C1C(=O)N2C(C(=O)O)=C(CN3CC(NS(N)(=O)=O)C3)[C@H](C)C12 (stereo partly shown)	8 µg/mL

Sample C[C@@H](O)C1C(=O)N2C(C(=O)O)=C(CN3CC[C@H](CNC(=N)N)C3)[C@H](C)C12 (stereo partly shown) — what was its MIC? 4 µg/mL

Another compound to look at: C[C@@H](O)C1C(=O)N2C(C(=O)O)=C(CN3CC(N)C3)[C@H](C)C12 (stereo partly shown) 8 µg/mL
